# Ki values compiled below
- Measured On: human A3 AR (Homo sapiens)
- Construct: expressed in transfected cells; host or cells: CHO cells
- Sequence (P0DMS8 1-318): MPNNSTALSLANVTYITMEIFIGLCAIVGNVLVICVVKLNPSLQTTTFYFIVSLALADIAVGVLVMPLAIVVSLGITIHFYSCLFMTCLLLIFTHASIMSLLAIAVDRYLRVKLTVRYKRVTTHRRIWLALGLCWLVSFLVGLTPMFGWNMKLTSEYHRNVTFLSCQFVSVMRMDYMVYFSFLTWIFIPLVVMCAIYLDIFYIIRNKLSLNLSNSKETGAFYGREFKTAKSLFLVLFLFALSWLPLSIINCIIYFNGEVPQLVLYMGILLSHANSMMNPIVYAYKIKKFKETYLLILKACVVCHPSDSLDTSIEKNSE
- Protocol Text: Radioligand binding assay at human A3 AR vs. [^3H]PSB-11
- Measurement Context: CHO cell membranes, n = 2 (n = 3 where marked a), read-out: Ki ± SEM, A3 vs. [^3H]PSB-11
Kindly provide the numeric value in µM only, without the unit symbol.

Look over these answered cases.
C#CCn1c(=O)c2c(nc3n2CCN(CCc2ccccc2OC)C3)n(CC)c1=O [Compound 20i]	5.83
CCn1c(=O)c2c(nc3n2CCN(Cc2ccc(F)c(Br)c2)C3)n(CC)c1=O [Compound 15k]	7.19
CCn1c(=O)c2c(nc3n2CCN(Cc2ccc(Cl)cc2C(F)(F)F)C3)n(CC)c1=O [Compound 15o]	1.69
CCn1c(=O)c2c(nc3n2CCN(Cc2cccc(Cl)c2)C3)n(CC)c1=O [Compound 15c]	5.41

Noted Ki for CCn1c(=O)c2c(nc3n2CCN(Cc2ccccc2F)C3)n(CC)c1=O [Compound 15a] , tested on human A3 AR (Homo sapiens): 7.82

Recorded Ki for C#CCn1c(=O)c2c(nc3n2CCN(c2cccc(OC)c2)C3)n(CC)c1=O [Compound 20c] on human A3 AR (Homo sapiens) was 7.16

Ki of C#CCn1c(=O)c2c(nc3n2CCN(c2ccc(OC)c(OC)c2)C3)n(CC)c1=O [Compound 20d] , assay on human A3 AR (Homo sapiens), is 3.64

Param item: CCn1c(=O)c2c(nc3n2CCN(Cc2ccc(Br)cc2)C3)n(C)c1=O [Compound 14c] ; param system: human A3 AR (Homo sapiens); output Ki: 9.39

---

- Measured On: recombinant human MAO-B (Homo sapiens)
- Construct: purchased Sigma-Aldrich M7441; host or cells: baculovirus-infected insect cells
- Sequence (P27338 whole entry): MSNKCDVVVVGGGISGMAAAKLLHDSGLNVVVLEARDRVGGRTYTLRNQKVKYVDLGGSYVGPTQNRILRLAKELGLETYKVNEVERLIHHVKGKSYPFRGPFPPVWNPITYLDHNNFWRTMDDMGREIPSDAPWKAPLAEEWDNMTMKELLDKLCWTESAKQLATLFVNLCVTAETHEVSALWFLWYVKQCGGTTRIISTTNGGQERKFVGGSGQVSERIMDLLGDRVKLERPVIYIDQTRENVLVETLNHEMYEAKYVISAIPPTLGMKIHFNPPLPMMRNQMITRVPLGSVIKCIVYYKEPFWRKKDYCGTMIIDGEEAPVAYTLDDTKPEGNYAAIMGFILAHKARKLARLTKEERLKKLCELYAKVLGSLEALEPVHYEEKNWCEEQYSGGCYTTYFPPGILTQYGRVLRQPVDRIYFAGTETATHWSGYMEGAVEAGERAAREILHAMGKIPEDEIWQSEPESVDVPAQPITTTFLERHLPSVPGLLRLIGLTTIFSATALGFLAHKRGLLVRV
- Protocol Text: Monoamine oxidase assay (Amplex Red), MAO-B
- Assay type: biochemical
- Measurement Context: n = 3; read-out: IC50 ± SEM, Human MAO-B
- Procedure: The determination of MAO-A and MAO-B inhibition was performed using commercially available recombinant human MAO-A and MAO-B enzymes expressed in baculovirus-infected insects sells (Sigma-Aldrich, M7316 and M7441) applying the commercially available Amplex® Red monoamine oxidase assay kit (Invitrogen A12214). The assays were performed as previously described. The determination of rat MAO-B inhibition was performed using mitochondrial-enriched fractions from male Sprague Dawley rat livers. […]
Assay Endpoint: IC50

C#CCn1c(=O)c2c(nc3n2CCN(Cc2ccc(Cl)c(Cl)c2)C3)n(C)c1=O [Compound 19a]	0.679 µM

The compound identified as CCn1c(=O)c2c(nc3n2CCN(Cc2ccccc2C(F)(F)F)C3)n(CC)c1=O [Compound 15f] registered its IC50 at > 10 µM

For reference, reported IC50 for CCn1c(=O)c2c(nc(/C=C/c3ccc(OC)c(OC)c3)n2C)n(CC)c1=O [Istradefylline, istradefylline, reference compound] stands at > 10 µM

Looking up CCn1c(=O)c2c(nc3n2CCN(Cc2cccc(Br)c2)C3)n(C)c1=O [Compound 14b] , I found its IC50 recorded as > 10 µM

What the record says about CCn1c(=O)c2c(nc3n2CCN(Cc2ccc(Cl)cc2C(F)(F)F)C3)n(CC)c1=O [Compound 15o] : IC50 is > 10 µM

Entry CCn1c(=O)c2c(nc3n2CCN(Cc2cc(C(F)(F)F)cc(C(F)(F)F)c2)C3)n(CC)c1=O [Compound 15q] ; IC50 = > 10 µM

Form: compound = CCn1c(=O)c2c(nc3n2CCN(Cc2ccc(C(F)(F)F)cc2)C3)n(C)c1=O [Compound 14f] ; IC50 = > 10 µM

Note to self: IC50 recorded for CCn1c(=O)c2c(nc3n2CCN(Cc2cc(F)c(F)c(F)c2)C3)n(CC)c1=O [Compound 15r] was 0.524 µM

The measurements presented in this section are drawn from paper PMC6028563.
